Target: human cloned 5-HT6 receptors (Homo sapiens, UniProt P50406)
Construct: expressed in transfected cells; host or cells: HeLa cells
Sequence (P50406 whole entry): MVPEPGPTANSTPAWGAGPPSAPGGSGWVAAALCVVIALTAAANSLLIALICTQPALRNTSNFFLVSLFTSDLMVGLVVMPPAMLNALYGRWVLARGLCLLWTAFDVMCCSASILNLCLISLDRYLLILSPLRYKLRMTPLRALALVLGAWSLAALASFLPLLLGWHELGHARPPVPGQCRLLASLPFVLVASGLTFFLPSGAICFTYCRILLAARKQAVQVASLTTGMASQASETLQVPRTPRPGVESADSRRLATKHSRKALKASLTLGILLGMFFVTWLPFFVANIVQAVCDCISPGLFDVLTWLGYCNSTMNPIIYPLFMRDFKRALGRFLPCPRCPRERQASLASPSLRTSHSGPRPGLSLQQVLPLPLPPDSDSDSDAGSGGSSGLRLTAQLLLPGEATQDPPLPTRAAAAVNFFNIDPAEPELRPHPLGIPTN
Test: 5-HT6 binding affinity, [3H]-LSD displacement on membranes of Hela cells
Conditions: Table 1; [3H]-LSD 3.0 nM, Hela cell membranes; read-out: Ki (nM) @ 5-HT6 receptor
Method: The affinity of test compounds for the 5-HT6 receptor is evaluated in the following manner. Cultured Hela cells expressing human cloned 5-HT6 receptors are harvested and centrifuged at low speed (1,000×g) for 10.0 min to remove the culture media. […] The final pellet is suspended in a small volume of Tris.HCl buffer and the tissue protein content is determined in aliquots of 10-25 microliter volumes. […]
parameter measured: Ki (nM)

Past entries and their recorded results:
>  <compound>
CNCCc1ccc2c(S(=O)(=O)c3ccccc3)c[nH]c2c1

>  <Ki, nM>
10.5

$$$$
>  <compound>
O=S(=O)(c1ccccc1)c1c[nH]c2c(CCN3CCNCC3)cccc12

>  <Ki, nM>
7.5

$$$$
>  <compound>
O=S(=O)(c1ccccc1)c1c[nH]c2cccc(CCNCC3CCCO3)c12 (centres unmarked)

>  <Ki, nM>
191

$$$$

[A] O=S(=O)(c1cccc(F)c1)c1c[nH]c2cccc(CCNC3CCC3)c12
[B] CCCNCCc1cccc2[nH]cc(S(=O)(=O)c3ccccc3)c12
Endpoint returns whichever of A and B has the numerically higher Ki. Return value: the label identifying the chosen record. B
